# Tested on: DU-145 prostate
# Assay method text: NCI-60 one-dose screen, 48 h
# Conditions used: 10 µM unless noted
The panel holds about 83,000 compounds, 20% with a hit somewhere; the sample as a whole holds those more often. The source made the active and inactive calls. Rule for the calls: active = growth percent below 10; inactive = the rest.
Lab note: assign the record to one of active, inactive

The examples below pair each entry with its known result.
* COc1cc(OC)c(C(=O)C(CN(C)C)CN(C)C)cc1OC | inactive
* Cc1ccc(C=C2C(=O)NC(=O)NC2=O)cc1 | inactive
* N=C(N)c1ccc(-c2ccc(-c3cc(Cl)cc(Cl)c3)s2)nc1 | active
* O=C(Cc1ccc(NC(=O)c2cccc(Cl)c2)cc1)NCc1ccccc1 | inactive

Now let's try a different one.
query: Could you kindly confirm the outcome this assay logged for C=C(CNCCO)[C@@H]1CC[C@]2(CO)CC[C@]3(C)[C@H](CC[C@@H]4[C@@]5(C)CCC(N)C(C)(C)[C@@H]5CC[C@]43C)[C@@H]12 (stereo not given in full) ?
result: inactive

###

# Test system: SN12C renal
# Assay method text: NCI-60 one-dose screen, 48 h
# Conditions used: 10 µM unless noted
About 83,000 compounds went through this panel and 20% of them were active in at least one assay; those are over-represented in the sample as a whole. Calls of active or inactive are those of the source. The calls were made as follows: active = growth percent below 10; inactive = the rest.
Lab note: assign the record to one of active, inactive

The examples below pair each entry with its known result.
- COc1ccc2c(c1)c(-c1nc(-c3c[nH]c4ncccc34)cs1)cn2CCCN1CCOCC1: inactive
- CN1CCN(C(=S)SCCCCOc2cc(=O)oc3ccccc23)CC1: inactive
- CO[C@H](C(=O)[C@@H](O)[C@@H](C)O)[C@@H]1Cc2cc3cc(O[C@H]4C[C@@H](O[C@H]5C[C@@H](O)[C@H](O)C(C)O5)[C@H](O)C(C)(O)O4)cc(O)c3c(O)c2C(=O)[C@H]1O[C@H]1C[C@@H](O[C@H]2C[C@@H](O[C@H]3C[C@@H](OC)[C@H](O)C(C)O3)[C@@H](O)C(C)O2)[C@H](O)C(C)O1 (stereo partly drawn): inactive
- Fc1ccc2[nH]cc(-c3nc(-c4c[nH]c5ccncc45)cs3)c2c1: active
- Cc1nc2ccccc2c(/C=C/c2ccccc2)c1C(=O)/C=C/c1ccccc1: inactive
- COc1ccc(/C=C(/c2ccccc2)[N+](=O)[O-])c(OC)c1: active
- NC(=O)c1cnc(Nc2cccc(N)c2)nc1NCCCNC(=O)C1CCC1: inactive
- Cc1ccc2c(-n3nc(C#N)c(C#N)c3N)cc(=O)[nH]c2c1: inactive
- O=C1c2ccccc2C(=O)c2c1c(C(=O)NCc1ccccc1)c1ccccn21: inactive
- C#CCO[C@H]1CC(CC#C)(CC#C)C(=O)[C@@H]2[C@H]1[C@H]1C[C@@H]3[C@@]4(C)CCC[C@@](C)(C(=O)OC)[C@@H]4CC[C@@]23C=C1C(C)C: inactive

query: Could you kindly confirm the outcome this assay logged for `COC(=O)c1c2c(c(C)[n+]([O-])c1C)C(=O)C(NCc1cccc(Cl)c1)=CC2=O` ?
result: active

###

# Test system: HCT-116 colon
# Assay method text: NCI-60 one-dose screen, 48 h (100 = growth as untreated, 0 = no growth, -100 = all killed)
# Conditions used: 10 µM unless noted
This is part of a sample that, as a whole, favours compounds with a hit. Of some 83,000 tested, about 20% had one in any assay.
Measurement name: growth (%)
Give just the number in %; leave the unit off.

Use the examples below as a reference point.
• CC1(C)CC[C@]23CC[C@]4(C)[C@H](CC[C@@H]5[C@@]6(C)C/C(=C/c7ccncc7)C(=O)C(C)(C)[C@@H]6CC[C@]54C)[C@H]2[C@H]1OC3 = 50
• COC(=O)c1c2c(n3ccccc13)C(=O)c1ccccc1C2=O = 27.9
• CCC1S/C(=N\N=C(\C)c2cc3cc(Cl)ccc3o2)N(c2ccccc2)C1=O (configuration not stated) = 84.2
• COC(=O)c1cc(Br)ccc1O = 108

query: Notebook: pull reported growth for HCT-116 colon, entry CO[C@H](C(=O)[C@@H](O)[C@@H](C)O)[C@@H]1Cc2cc3cc(O[C@H]4C[C@@H](O[C@H]5C[C@@H](O)[C@H](O)C(C)O5)[C@H](O)C(C)(O)O4)cc(O)c3c(O)c2C(=O)[C@H]1O[C@H]1C[C@@H](O[C@H]2C[C@@H](O[C@H]3C[C@@H](OC)[C@H](O)C(C)O3)[C@@H](O)C(C)O2)[C@H](O)C(C)O1 (some centres not stated)
result: 6.03

query: Notebook: pull reported growth for HCT-116 colon, entry `COc1cccc(C(=O)NNc2nc(Cl)nc(Cl)n2)c1`
result: 108
